# tgt: OsWOX13 (Oryza sativa, UniProt Q5QMM3 1-267)
# Sequence: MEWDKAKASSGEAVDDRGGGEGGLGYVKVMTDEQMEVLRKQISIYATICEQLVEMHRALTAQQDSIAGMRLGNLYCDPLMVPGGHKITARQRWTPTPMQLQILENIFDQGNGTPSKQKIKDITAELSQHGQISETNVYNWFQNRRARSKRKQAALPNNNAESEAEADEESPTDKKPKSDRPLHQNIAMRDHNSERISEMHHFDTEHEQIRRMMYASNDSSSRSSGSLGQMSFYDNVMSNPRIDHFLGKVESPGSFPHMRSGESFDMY
# method.notes: protein-binding microarray (RPBM); PBS, 2% BSA, 51.3 ng/ul salmon testes DNA, 50 uM zinc acetate, 200 nM TF, 25 C, 1 h; high values mean tight binding
# condition.description: protein: recombinant; tags: N-terminal polyhistidine and DsRed monomer fusion (pET32a); label: CyDye5-dUTP incorporated in the synthesized complementary strand; 3' TTTTT single-stranded linker to array surface; dsDNA, one strand shown
Whole data set: some 35,000 sequences, median “fluorescence intensity (a.u.)” near 10,000, cut for the highest 2% near 52,000. The full list was thinned out, with the highest values kept by preference.
Let's look at some sequences and their measured binding signal.

{"item.sequence": "TTGGACACTAATTATAAATATTAAATATAGACTATTAATACGGAGTCACCTAGTGCAG", "tgt": "OsWOX13 (Oryza sativa, UniProt Q5QMM3 1-267)", "binding signal": "4640 fluorescence intensity (a.u.)"}
{"item.sequence": "TTAATTAACTCAGCTTCTAGTTCATATGACTCTTGCTAATCGGAGTCACCTAGTGCAG", "tgt": "OsWOX13 (Oryza sativa, UniProt Q5QMM3 1-267)", "binding signal": "8400 fluorescence intensity (a.u.)"}
{"item.sequence": "TTAATTGTTTTATCCTATTAATTGGTAGAAGCGGTATTTTCGGAGTCACCTAGTGCAG", "tgt": "OsWOX13 (Oryza sativa, UniProt Q5QMM3 1-267)", "binding signal": "26700 fluorescence intensity (a.u.)"}
{"item.sequence": "TTATAATTGGAAAATAAATGAAGGGTTATAATTAAATGAACGGAGTCACCTAGTGCAG", "tgt": "OsWOX13 (Oryza sativa, UniProt Q5QMM3 1-267)", "binding signal": "12000 fluorescence intensity (a.u.)"}

## Task Give recorded binding signal with OsWOX13 (Oryza sativa, UniProt Q5QMM3 1-267) for the following sequence: AATTATTTAAATCAATGTAACTCAAAAGTTAATAAACGTGCGGAGTCACCTAGTGCAG
## Result 13100 fluorescence intensity (a.u.)

## Task Could you share what binding signal was measured for AATTTAATTAATTATGACTTCAGCTTGGTAGGTTCAGTTGCGGAGTCACCTAGTGCAG , tested on OsWOX13 (Oryza sativa, UniProt Q5QMM3 1-267)?
## Result 53000 fluorescence intensity (a.u.)

----------
# tgt: OsWOX13 (Oryza sativa, UniProt Q5QMM3 1-267)
# Sequence: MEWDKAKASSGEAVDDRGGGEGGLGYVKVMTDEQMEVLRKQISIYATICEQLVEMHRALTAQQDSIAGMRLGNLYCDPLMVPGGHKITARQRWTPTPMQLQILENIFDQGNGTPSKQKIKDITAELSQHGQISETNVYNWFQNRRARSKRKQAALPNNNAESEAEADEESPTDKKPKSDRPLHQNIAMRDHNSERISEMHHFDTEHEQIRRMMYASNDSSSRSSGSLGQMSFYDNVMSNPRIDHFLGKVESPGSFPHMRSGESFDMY
# method.notes: protein-binding microarray (RPBM); PBS, 2% BSA, 51.3 ng/ul salmon testes DNA, 50 uM zinc acetate, 200 nM TF, 25 C, 1 h; high values mean tight binding
# condition.description: protein: recombinant; tags: N-terminal polyhistidine and DsRed monomer fusion (pET32a); label: CyDye5-dUTP incorporated in the synthesized complementary strand; 3' TTTTT single-stranded linker to array surface; dsDNA, one strand shown
In all, about 35,000 sequences were measured (“fluorescence intensity (a.u.)”: median about 10,000, highest 2% from about 52,000 on). This excerpt belongs to a sample that is enriched for the highest values.
readout.type: binding signal

Look over these answered cases.
{"item.sequence": "TCTAGATTTGATCATTTTGACCTCTTGCTCCGTTAGATCTCGGAGTCACCTAGTGCAG", "binding signal": "9940 fluorescence intensity (a.u.)"}
{"item.sequence": "AGATTAGATTTAGATTAGTCCTATGTGTCTCTTGCCGGGTCGGAGTCACCTAGTGCAG", "binding signal": "19100 fluorescence intensity (a.u.)"}
{"item.sequence": "CCTTCATTCATTTCCTAATCCCAATCCCACCCTCCATTTCCGGAGTCACCTAGTGCAG", "binding signal": "3570 fluorescence intensity (a.u.)"}
{"item.sequence": "AACCAATTTATATTGTCAGAAGAAAATGCATTATATAGGTCGGAGTCACCTAGTGCAG", "binding signal": "6730 fluorescence intensity (a.u.)"}

In the following, a different sequence is considered.
## Task Item TCTCCGTCCCCATCACCCTCGCAATTACTCCACCCGCCGGCGGAGTCACCTAGTGCAG has what recorded binding signal?
## Result 5550 fluorescence intensity (a.u.)

----------
// reported binding signal for each item listed
# tgt: OsWOX13 (Oryza sativa, UniProt Q5QMM3 1-267)
# Sequence: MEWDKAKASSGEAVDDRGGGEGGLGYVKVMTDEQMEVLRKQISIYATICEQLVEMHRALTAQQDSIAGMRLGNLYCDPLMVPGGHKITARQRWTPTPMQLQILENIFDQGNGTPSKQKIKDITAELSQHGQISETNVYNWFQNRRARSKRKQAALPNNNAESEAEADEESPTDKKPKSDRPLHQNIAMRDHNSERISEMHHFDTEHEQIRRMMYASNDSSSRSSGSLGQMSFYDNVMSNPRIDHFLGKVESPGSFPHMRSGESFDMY
# method.notes: protein-binding microarray (RPBM); PBS, 2% BSA, 51.3 ng/ul salmon testes DNA, 50 uM zinc acetate, 200 nM TF, 25 C, 1 h; high values mean tight binding
# condition.description: protein: recombinant; tags: N-terminal polyhistidine and DsRed monomer fusion (pET32a); label: CyDye5-dUTP incorporated in the synthesized complementary strand; 3' TTTTT single-stranded linker to array surface; dsDNA, one strand shown
Whole data set: some 35,000 sequences, median “fluorescence intensity (a.u.)” near 10,000, cut for the highest 2% near 52,000. The list comes from a sample in which the highest values are over-represented; it also holds close analogues and randomly drawn sequences.

Solved cases (3 shown):
{"item.sequence": "TGCTGTAATTACTTTTCTGTAATTTGGATTAATCCTTCGCCGGAGTCACCTAGTGCAG", "binding signal": "40800 fluorescence intensity (a.u.)"}
{"item.sequence": "GTTATGATTAATTGCGCCATTAGGATATTAATTAATCTGGCGGAGTCACCTAGTGCAG", "binding signal": "54500 fluorescence intensity (a.u.)"}
{"item.sequence": "CACCATTATTGCCAATTATCCTTGCTTGCGTGGTAGAGTACGGAGTCACCTAGTGCAG", "binding signal": "26200 fluorescence intensity (a.u.)"}

## Task // query binding signal value for entry AATTAAATTTTAACTATTAATATTATATTTTATAAATATTCGGAGTCACCTAGTGCAG
## Result 6480 fluorescence intensity (a.u.)

## Task Given TGGAATTTTGAGTGTGTGATTGCGTTATTACGTTGCAAGTCGGAGTCACCTAGTGCAG , state its recorded binding signal.
## Result 3550 fluorescence intensity (a.u.)

## Task Value lookup for binding signal; key = GAAGTGATTGATATTTGAGCAATTAGTCCGTTGTCAGGGTCGGAGTCACCTAGTGCAG
## Result 62400 fluorescence intensity (a.u.)

## Task Value lookup for binding signal; key = ACATTCATATTGATGTTAATGATTCTAGACATATATATCTCGGAGTCACCTAGTGCAG
## Result 4710 fluorescence intensity (a.u.)

## Task Value lookup for binding signal; key = AAACCATTAGCGCATAATTTATTGAGTTTTAATTATTTCACGGAGTCACCTAGTGCAG
## Result 6070 fluorescence intensity (a.u.)

----------
# tgt: OsWOX13 (Oryza sativa, UniProt Q5QMM3 1-267)
# Sequence: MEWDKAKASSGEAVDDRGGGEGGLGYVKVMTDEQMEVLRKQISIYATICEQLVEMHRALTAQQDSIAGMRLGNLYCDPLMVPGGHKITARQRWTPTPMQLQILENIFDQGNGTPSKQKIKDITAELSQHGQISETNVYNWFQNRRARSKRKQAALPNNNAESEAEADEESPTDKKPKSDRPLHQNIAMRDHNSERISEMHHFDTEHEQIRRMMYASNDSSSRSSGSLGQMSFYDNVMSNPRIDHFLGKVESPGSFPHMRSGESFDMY
# method.notes: protein-binding microarray (RPBM); PBS, 2% BSA, 51.3 ng/ul salmon testes DNA, 50 uM zinc acetate, 200 nM TF, 25 C, 1 h; high values mean tight binding
# condition.description: protein: recombinant; tags: N-terminal polyhistidine and DsRed monomer fusion (pET32a); label: CyDye5-dUTP incorporated in the synthesized complementary strand; 3' TTTTT single-stranded linker to array surface; dsDNA, one strand shown
Whole data set: some 35,000 sequences, median “fluorescence intensity (a.u.)” near 10,000, cut for the highest 2% near 52,000. The sample as a whole holds a higher share of the highest values than the screen did.
# maps each entry to its binding signal

Solved entries (count: 2):
{"item.sequence": "TATGACAGGTGGGATTAGGTATTAATAGTGTAGTATGTAACGGAGTCACCTAGTGCAG", "tgt": "OsWOX13 (Oryza sativa, UniProt Q5QMM3 1-267)", "binding signal": "8510 fluorescence intensity (a.u.)"}
{"item.sequence": "ACACTAATTAGGGAGATAATCTCTCTTGTGGTGTTTGTGTCGGAGTCACCTAGTGCAG", "tgt": "OsWOX13 (Oryza sativa, UniProt Q5QMM3 1-267)", "binding signal": "52300 fluorescence intensity (a.u.)"}

## Task Give recorded binding signal with OsWOX13 (Oryza sativa, UniProt Q5QMM3 1-267) for the following sequence: TGGCACACTAATTAGGGAGAAAATCTCTATCTTGTGTTGTCGGAGTCACCTAGTGCAG
## Result 9710 fluorescence intensity (a.u.)

## Task Hi! What's the reported binding signal for AATAATTTTCTTTTGTCACACTGTTTCTTCTCTAATCTATCGGAGTCACCTAGTGCAG on OsWOX13 (Oryza sativa, UniProt Q5QMM3 1-267)?
## Result 5890 fluorescence intensity (a.u.)

## Task So what binding signal did GAGCTCAGCTTGCAGGGAGCTTGGGTGTGTGATCATACACCGGAGTCACCTAGTGCAG get with OsWOX13 (Oryza sativa, UniProt Q5QMM3 1-267)?
## Result 63900 fluorescence intensity (a.u.)
